In this section, each of the compounds is paired with its reported logD.
# assayProtocol: Lipophilicity, log D of the compound at pH 7 by shake flask method
# Format: physicochemical
# cond: buffer

>  <mol>
Cc1ccnc(C)c1C(=O)N1C[C@H]2CN(CC[C@H](NC(=O)C3CCCC3)c3ccccc3)C[C@H]2C1

>  <logD>
1.9

$$$$
>  <mol>
Cc1ncnc(C)c1C(=O)N1C[C@H]2CN(CC[C@H](NC(=O)C3CCCC3)c3ccccc3)C[C@H]2C1

>  <logD>
1.37

$$$$
>  <mol>
Cc1nn(-c2ccccc2)c(C)c1C(=O)N1C[C@H]2CN(CC[C@H](NC(=O)C3CCCC3)c3ccccc3)C[C@H]2C1

>  <logD>
2.92

$$$$
>  <mol>
Cc1cc(C#N)nc(C)c1C(=O)N1C[C@H]2CN(CC[C@H](NC(=O)C3CCCC3)c3ccccc3)C[C@H]2C1

>  <logD>
1.89

$$$$
